# maps each entry to its cytotoxicity at 70.5 h
# experimental details: Human HepG2 cell viability assay in 384 well format
# Assay type: toxicity, cell-based
# Set-up: dose 125 nL, time 70.5 hour; concentration not given beside the values
# condition label: HepG2 cells, read-out: Inhibition
Write the value in % as a bare number.

Guide cases for cytotoxicity at 70.5 h, answers given:
compound | recorded number
Cn1cnc2c1CCN(CC(O)c1ccc(S(C)(=O)=O)cc1)C2 (centres undefined) | -8.26
CN1CCOC(C)(C(=O)N2CCSCC2)C1 (centres undefined) | -4.76
CN1C[C@H](c2ccccc2)[C@H]2CN(C(=O)Cc3cccc(O)c3)CC[C@H]21 | -2.25
CC(=O)NCC1CCCN(C(=O)Cc2c(C)noc2C)C1 (centres undefined) | -22.9
Cc1cc(C)nc(N2CCC(Cn3cc(C(N)=O)cn3)CC2)n1 | -7.04
Cc1ccc(C)c2c(O)cc(CNCCNC(=O)C(C)C)nc12 | -6.05
C[C@H](NC(=O)N1CCC(Cc2ccccc2)CC1)C(=O)O | -12.5
NS(=O)(=O)c1cc(C(=O)N2CCCCC2)cs1 | -4.34
O=C(c1cc[nH]n1)N1CC[C@@H]2CN(Cc3ccccc3)S(=O)(=O)[C@@H]2CC1 | -13.3
CC(Cn1ccnc1)NC(=O)Nc1ccccn1 (centres undefined) | 10.5

Sample COc1cccc(CC(C)NC(=O)c2ccc(CNC(C)=O)cc2)c1 (centres undefined) — what was its cytotoxicity at 70.5 h?
-2.82

Sample Cc1ccc(C(=O)N2CCCC2c2nnc3n2CCCCC3)s1 (centres undefined) — what was its cytotoxicity at 70.5 h?
8.9

Sample `Cc1nc(CNC(=O)c2cc(COc3cccc(F)c3)[nH]n2)n[nH]1` — what was its cytotoxicity at 70.5 h?
15.3

Sample `Cc1ccc2c(c1)SCC(=O)N2CC(=O)N1CCC[C@H]1c1nc(C)no1` — what was its cytotoxicity at 70.5 h?
-5.13

Sample `N#Cc1ncn(CCC(=O)Nc2c(Cl)cccc2Cl)n1` — what was its cytotoxicity at 70.5 h?
-6.06

Sample c1ccc(Cc2noc(CN3CCCCC3Cn3cncn3)n2)cc1 (centres undefined) — what was its cytotoxicity at 70.5 h?
11.2

Sample `COc1ccc(Cl)cc1CS(=O)(=O)Cc1cc(C)on1` — what was its cytotoxicity at 70.5 h?
-5.88

Sample `CCN1CCN(c2ccc(C(=O)NCc3cc(C)no3)cc2F)CC1` — what was its cytotoxicity at 70.5 h?
-4.13

Sample `NC(=O)C1=NC2=NS(=O)(=O)c3ccccc3N2N1Cc1ccccc1Cl` — what was its cytotoxicity at 70.5 h?
-7.31

* * *

# maps each entry to its cytotoxicity at 70.5 h
# experimental details: Human HepG2 cell viability assay in 384 well format
# Format: toxicity, cell-based
# Set-up: dose 125 nL, time 70.5 hour; concentration not given beside the values
# condition label: HepG2 cells, read-out: Inhibition
Write the value in % as a bare number.

compound | cytotoxicity at 70.5 h (%)
Cc1cnc(CN(C)C2CCN(CC(=O)Nc3nncs3)C2)o1 (stereo not drawn) | 17.3

Sample CCC(C)N(Cc1ccncc1)C(=O)CCSC (stereo not drawn) — what was its cytotoxicity at 70.5 h?
-10.6

Sample CN(CC(C)(C)O)C1CCCN(Cc2noc(C3CC3)n2)C1 (stereo not drawn) — what was its cytotoxicity at 70.5 h?
41.7

Sample `CS(=O)(=O)Nc1cccc(CNC(=O)CCC(=O)c2cccs2)c1` — what was its cytotoxicity at 70.5 h?
-3.24

Sample `O=C(Cn1cccn1)Nc1ccc(N2CCOCC2)cc1` — what was its cytotoxicity at 70.5 h?
0.51

Sample NC(=O)NCC(=O)N1CCCC(c2nccn2CC2CCC2)C1 (stereo not drawn) — what was its cytotoxicity at 70.5 h?
-1.33
